Source listed as patent US20210222144A1.

I'd be grateful if you could share measured relative hydration activity compared to wt-OhyA for these entries.
SYSTEM_NAME: OhyA Q265A/T436A/N438A (Elizabethkingia meningoseptica, UniProt C7DLJ6, N438A/Q265A/T436A)
Construct: His tag with TEV site by the vector name (HISTEV); expressed in transfected cells; host or cells: E. coli BL21 Star (DE3)
Sequence (C7DLJ6 whole entry Q265A/T436A/N438A): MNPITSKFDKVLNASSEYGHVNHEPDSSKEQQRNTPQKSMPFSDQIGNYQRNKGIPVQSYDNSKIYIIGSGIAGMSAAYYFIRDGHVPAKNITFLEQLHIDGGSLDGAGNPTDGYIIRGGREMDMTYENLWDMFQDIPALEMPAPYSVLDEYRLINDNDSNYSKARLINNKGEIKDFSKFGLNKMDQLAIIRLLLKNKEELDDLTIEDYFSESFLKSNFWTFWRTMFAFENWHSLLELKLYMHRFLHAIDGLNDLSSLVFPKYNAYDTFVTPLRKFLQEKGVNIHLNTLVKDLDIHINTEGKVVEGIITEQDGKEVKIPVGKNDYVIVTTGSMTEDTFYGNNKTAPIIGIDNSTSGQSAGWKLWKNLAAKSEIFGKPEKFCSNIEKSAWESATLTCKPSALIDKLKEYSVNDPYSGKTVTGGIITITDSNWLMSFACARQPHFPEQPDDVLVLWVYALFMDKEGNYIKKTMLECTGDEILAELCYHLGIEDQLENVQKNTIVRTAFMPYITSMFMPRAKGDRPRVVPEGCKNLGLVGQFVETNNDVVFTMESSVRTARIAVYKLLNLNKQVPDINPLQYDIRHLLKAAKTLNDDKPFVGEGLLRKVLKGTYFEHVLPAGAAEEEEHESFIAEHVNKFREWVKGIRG
ASSAY_NOTES: Whole cell E. coli biotransformation, hydration of oleic acid and derivatives by mutant OhyA Q265A/T436A/N438A
Type: cell-based
SETUP_CONDITIONS: OhyA Q265A/T436A/N438A versus wt-OhyA
One number for each entry, in fold.

The cases that follow already have their relative hydration activity compared to wt-OhyA on record.
>  <COMPOUND>
CCCCCCCC/C=C\CCCCCCCC(=O)OCCC [Entry 9, n-propyl oleate]

>  <OBSERVED_RESULT>
20

$$$$
>  <COMPOUND>
CCCCCCCC/C=C\CCCCCCCC(=O)OC [Entry 6, methyl oleate]

>  <OBSERVED_RESULT>
6

$$$$

Next:
Prompt line: Item: CCCCCCCC/C=C\CCCCCCCC(=O)OCC [Entry 7, ethyl oleate] Test system: OhyA Q265A/T436A/N438A (Elizabethkingia meningoseptica, UniProt C7DLJ6, N438A/Q265A/T436A) Read-out: relative hydration activity compared to wt-OhyA Value: ?
Response line: 6
